Reference for the values: the supplement of paper PMC10065799

biological target: EPHB1 (UniProt P54762); test: phosphorylation enrichment, bacterial display (enrichment ratio); higher = better substrate or ligand; peptides without Tyr show the background;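 also: 11-residue human phosphosite peptides and single-mutation variants displayed on the E. coli surface, counted by deep sequencing, each peptide's frequency after selection divided by its frequency in the unselected input library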;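 also: frequency after pTyr selection over input frequency; kinase dosed for 20-30% of maximal phosphorylation in three min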
Sequence (P54762 whole entry, looked up): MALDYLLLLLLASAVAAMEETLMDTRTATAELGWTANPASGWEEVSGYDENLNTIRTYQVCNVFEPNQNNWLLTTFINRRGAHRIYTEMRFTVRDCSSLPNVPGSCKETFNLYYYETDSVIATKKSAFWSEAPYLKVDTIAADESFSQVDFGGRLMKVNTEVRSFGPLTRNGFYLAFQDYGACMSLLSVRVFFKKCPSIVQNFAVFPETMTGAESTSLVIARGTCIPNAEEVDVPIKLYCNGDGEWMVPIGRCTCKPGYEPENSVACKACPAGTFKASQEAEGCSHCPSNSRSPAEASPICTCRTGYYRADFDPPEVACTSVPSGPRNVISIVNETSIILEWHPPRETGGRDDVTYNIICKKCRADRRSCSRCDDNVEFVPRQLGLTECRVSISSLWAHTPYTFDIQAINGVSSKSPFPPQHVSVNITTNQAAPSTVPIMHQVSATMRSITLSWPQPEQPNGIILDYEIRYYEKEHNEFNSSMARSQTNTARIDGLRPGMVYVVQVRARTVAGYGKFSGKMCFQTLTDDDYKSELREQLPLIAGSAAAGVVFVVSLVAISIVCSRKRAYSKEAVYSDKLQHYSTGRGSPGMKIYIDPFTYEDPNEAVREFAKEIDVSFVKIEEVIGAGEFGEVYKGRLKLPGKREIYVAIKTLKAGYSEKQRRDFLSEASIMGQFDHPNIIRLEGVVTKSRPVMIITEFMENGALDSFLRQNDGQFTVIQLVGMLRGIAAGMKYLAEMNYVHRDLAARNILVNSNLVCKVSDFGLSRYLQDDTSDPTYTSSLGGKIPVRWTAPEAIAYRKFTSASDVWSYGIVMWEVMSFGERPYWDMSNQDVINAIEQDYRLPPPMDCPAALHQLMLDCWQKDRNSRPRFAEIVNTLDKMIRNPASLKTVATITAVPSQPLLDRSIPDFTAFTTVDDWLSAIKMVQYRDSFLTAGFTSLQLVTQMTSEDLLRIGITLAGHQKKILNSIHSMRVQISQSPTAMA
Label scheme, based on phosphorylation enrichment: bin 1 (below 0.4), bin 2 (0.4 to below 0.6), bin 3 (0.6 or more)

Take a look at these entries with their results.
- entry.sequence: "CYSSEYHYVGG [CTSC_Y345_Y340C]"
  class: "bin 3"
- entry.sequence: "NTDETYSIDNE [TUBB2B_Y200_C201S]"
  class: "bin 3"
- entry.sequence: "KDHPDYKFQPR [SOX10_Y171_YF]"
  class: "bin 2"
- entry.sequence: "LSDGPYSNSFE [EPOR_Y485_P488S_YF]"
  class: "bin 3"
- entry.sequence: "PQGVRYTFTID [DCX_Y103_I104T_YF]"
  class: "bin 3"

Inquiry: Please indicate the class for ADSLRYIFPKL [EIF2B3_Y92_YF] based on its phosphorylation enrichment.
Reply text: bin 2

Inquiry: Please indicate the class for KRISCYEASYQ [PFKFB3_Y194] based on its phosphorylation enrichment.
Reply text: bin 2

Inquiry: Please indicate the class for TTANRYLKVSD [MYOM2_Y871] based on its phosphorylation enrichment.
Reply text: bin 1

Inquiry: Please indicate the class for AKGMKYLASKK [MET_Y1194] based on its phosphorylation enrichment.
Reply text: bin 1

Inquiry: Please indicate the class for VKYGAYINDFK [GLB1_Y488_N484K] based on its phosphorylation enrichment.
Reply text: bin 2

###

test system: c-Abl (mouse); assay: phosphorylation enrichment, bacterial display (enrichment ratio); higher = better substrate or ligand; peptides without Tyr show the background
Label not satisfied if phosphorylation enrichment falls below 0.8; label satisfied in every other case.

Take a look at these entries with their results.
- entry.sequence: "GHGEEYPVAGA [NOTCH3_Y2221_A2223V]"
  class: "not satisfied"
- entry.sequence: "RLDRSYSYSYS [PEAR1_Y890]"
  class: "not satisfied"
- entry.sequence: "YSDPSYVKQME [CDC5L_Y464]"
  class: "not satisfied"
- entry.sequence: "SSEFHYVGGFF [CTSC_Y347_YF]"
  class: "satisfied"
- entry.sequence: "SHLSAYPALEG [CD5_Y465]"
  class: "not satisfied"

Inquiry: Entry FDDIACIRKTL [PIK3CA_Y1021_Y1021C] : is its phosphorylation enrichment no less than 0.8?
Reply text: not satisfied

Inquiry: Entry IFHENYNAGTY [CFI_Y421] : is its phosphorylation enrichment no less than 0.8?
Reply text: not satisfied

Inquiry: Entry YAFQLYDLDRD [CHP2_Y123] : is its phosphorylation enrichment no less than 0.8?
Reply text: not satisfied

Inquiry: Entry AGLEEYSAMRD [HRAS_Y64_Q61L] : is its phosphorylation enrichment no less than 0.8?
Reply text: not satisfied

Inquiry: Entry LSSEMCVKSFT [F5_Y2149_Y2149C_YF] : is its phosphorylation enrichment no less than 0.8?
Reply text: satisfied

Inquiry: Entry YRQLPYCPSVE [CTNND2_Y508_Q507P] : is its phosphorylation enrichment no less than 0.8?
Reply text: satisfied

Inquiry: Entry TEALYYTDDPA [ADPRS_Y75_T79P] : is its phosphorylation enrichment no less than 0.8?
Reply text: satisfied

###

Listed sequences paired with reported phosphorylation enrichment
biological target: EPHB2 (UniProt P29323); test: phosphorylation enrichment, bacterial display (enrichment ratio); higher = better substrate or ligand; peptides without Tyr show the background
Sequence (P29323 whole entry, looked up): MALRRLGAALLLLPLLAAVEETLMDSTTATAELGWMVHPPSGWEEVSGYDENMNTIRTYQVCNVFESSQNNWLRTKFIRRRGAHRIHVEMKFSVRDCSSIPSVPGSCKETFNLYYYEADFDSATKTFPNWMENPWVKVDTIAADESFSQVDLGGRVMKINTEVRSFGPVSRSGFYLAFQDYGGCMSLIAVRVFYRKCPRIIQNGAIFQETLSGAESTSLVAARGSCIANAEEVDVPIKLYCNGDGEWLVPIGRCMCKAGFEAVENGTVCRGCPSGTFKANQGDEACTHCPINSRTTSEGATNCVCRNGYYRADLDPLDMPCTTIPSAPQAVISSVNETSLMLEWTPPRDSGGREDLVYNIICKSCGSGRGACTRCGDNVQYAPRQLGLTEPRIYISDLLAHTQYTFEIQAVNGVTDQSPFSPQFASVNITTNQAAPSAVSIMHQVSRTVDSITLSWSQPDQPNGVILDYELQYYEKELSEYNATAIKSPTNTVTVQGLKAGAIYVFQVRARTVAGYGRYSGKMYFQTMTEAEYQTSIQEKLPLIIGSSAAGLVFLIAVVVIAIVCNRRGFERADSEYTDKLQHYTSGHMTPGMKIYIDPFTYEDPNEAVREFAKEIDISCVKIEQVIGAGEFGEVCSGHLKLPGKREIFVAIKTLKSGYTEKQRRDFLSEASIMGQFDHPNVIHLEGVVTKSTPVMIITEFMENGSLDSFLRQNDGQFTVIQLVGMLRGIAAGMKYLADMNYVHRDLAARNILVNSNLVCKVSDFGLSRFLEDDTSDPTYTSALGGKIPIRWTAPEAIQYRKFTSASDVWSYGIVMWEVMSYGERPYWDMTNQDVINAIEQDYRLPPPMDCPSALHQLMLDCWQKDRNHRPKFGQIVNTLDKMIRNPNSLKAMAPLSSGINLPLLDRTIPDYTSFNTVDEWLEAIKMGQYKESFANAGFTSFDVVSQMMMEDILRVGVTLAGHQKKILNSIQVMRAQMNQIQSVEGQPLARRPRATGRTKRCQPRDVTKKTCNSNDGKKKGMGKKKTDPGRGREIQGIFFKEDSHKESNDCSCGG

Study these solved cases before continuing.
- entry.sequence: "AHLLQYNHRVK [LGALS3_Y221]"
  phosphorylation enrichment: 0.493
- entry.sequence: "MGSFNYLGFAR [SPTLC2_Y178_YF]"
  phosphorylation enrichment: 0.493
- entry.sequence: "KFADVYVGICL [B3GALNT1_Y269_E266A]"
  phosphorylation enrichment: 0.988
- entry.sequence: "QNVADYMRCLM [RPL5_Y207_Y210C]"
  phosphorylation enrichment: 0.801
- entry.sequence: "GEDEPYSEPYA [APBA1_Y183]"
  phosphorylation enrichment: 0.673
- entry.sequence: "NAGDYYDLYGG [PTPN11_Y63_T59A]"
  phosphorylation enrichment: 15.9
- entry.sequence: "FPILNYKDIRK [CFAP221_Y798_M795I]"
  phosphorylation enrichment: 0.487
- entry.sequence: "KILGRYYETGS [PAX2_Y72]"
  phosphorylation enrichment: 0.586
- entry.sequence: "AQVDTYCRHNY [HLA-DRB1_Y107_A103Q]"
  phosphorylation enrichment: 0.47
- entry.sequence: "TEYSQYMRRKN [MAX_Y73_I71S]"
  phosphorylation enrichment: 0.563

Inquiry: Which phosphorylation enrichment value is on record for QKMADYSNKLY [PDPR_Y104] ?
Reply text: 0.455

Inquiry: Which phosphorylation enrichment value is on record for FSQQTYFRVSN [ABCD1_Y180_YF] ?
Reply text: 0.564

Inquiry: Which phosphorylation enrichment value is on record for GGGGGYNRSSG [FUS_Y232] ?
Reply text: 0.271

Inquiry: Which phosphorylation enrichment value is on record for QDEPTYARSSK [PEAK1_Y616_H611Q] ?
Reply text: 0.498

Inquiry: Which phosphorylation enrichment value is on record for IFLADYRIMEG [ALOX12B_Y318_YF] ?
Reply text: 0.523

Inquiry: Which phosphorylation enrichment value is on record for PESTLYRKFTT [NTRK1_Y701_I699T] ?
Reply text: 0.275

Inquiry: Which phosphorylation enrichment value is on record for FESPRYLQVHI [FANCA_Y488] ?
Reply text: 0.461

Inquiry: Which phosphorylation enrichment value is on record for MKGDYYRYLAE [YWHAG_Y131] ?
Reply text: 1.02

Inquiry: Which phosphorylation enrichment value is on record for LYSNAYLNDLA [ALDH1A1_Y119] ?
Reply text: 0.685

Inquiry: Which phosphorylation enrichment value is on record for SLEKSYELPDG [ACTA1_Y242] ?
Reply text: 0.531

Inquiry: Which phosphorylation enrichment value is on record for HFPFQCHRQLF [F12_Y53_Y53C_YF] ?
Reply text: 0.758

Inquiry: Which phosphorylation enrichment value is on record for SLEKSYKLPDG [ACTA1_Y242_E243K] ?
Reply text: 0.434

Inquiry: Which phosphorylation enrichment value is on record for FQRLRYIKQLG [SAMHD1_Y146] ?
Reply text: 0.592
